Target: T1, IL10Rα and IL2Rγ on human primary cells (CD8 T cells, CD4 T cells, monocytes) (human) (UniProt Q13651)
T1 sequence (looked up) 1: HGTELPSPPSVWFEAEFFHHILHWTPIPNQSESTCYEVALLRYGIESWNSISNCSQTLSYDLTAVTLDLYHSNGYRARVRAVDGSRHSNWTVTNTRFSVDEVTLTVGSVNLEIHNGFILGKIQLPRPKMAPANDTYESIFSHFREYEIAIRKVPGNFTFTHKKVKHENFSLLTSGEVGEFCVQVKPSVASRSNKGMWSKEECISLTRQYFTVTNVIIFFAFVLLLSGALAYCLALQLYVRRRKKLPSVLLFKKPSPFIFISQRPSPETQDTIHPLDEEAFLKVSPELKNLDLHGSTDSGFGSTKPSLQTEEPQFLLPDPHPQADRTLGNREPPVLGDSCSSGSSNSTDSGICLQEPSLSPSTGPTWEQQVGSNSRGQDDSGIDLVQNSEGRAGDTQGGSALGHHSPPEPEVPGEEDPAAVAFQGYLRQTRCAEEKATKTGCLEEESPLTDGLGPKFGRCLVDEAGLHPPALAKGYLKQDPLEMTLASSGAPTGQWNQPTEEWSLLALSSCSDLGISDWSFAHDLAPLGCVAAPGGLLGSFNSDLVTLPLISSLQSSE
T1 sequence (looked up) 2: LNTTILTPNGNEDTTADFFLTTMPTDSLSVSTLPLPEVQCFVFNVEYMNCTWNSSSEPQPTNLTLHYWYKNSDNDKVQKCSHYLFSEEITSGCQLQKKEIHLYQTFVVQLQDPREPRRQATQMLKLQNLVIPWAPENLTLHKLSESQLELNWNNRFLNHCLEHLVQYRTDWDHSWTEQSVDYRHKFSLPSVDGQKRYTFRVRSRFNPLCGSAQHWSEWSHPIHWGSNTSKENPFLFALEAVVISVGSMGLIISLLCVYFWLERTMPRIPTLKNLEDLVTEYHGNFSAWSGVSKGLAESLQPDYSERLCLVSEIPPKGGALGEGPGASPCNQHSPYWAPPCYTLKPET
Assay: cell-based or functional assay
quantity kind: pSTAT3 (MFI) in CD8 T cells at 10 µM

• hIL10Ra_VHH14-hIL2Rg_VHH19, linker GGGSGGGS, tag his (bispecific antibody, not shown: small tags and cut ends) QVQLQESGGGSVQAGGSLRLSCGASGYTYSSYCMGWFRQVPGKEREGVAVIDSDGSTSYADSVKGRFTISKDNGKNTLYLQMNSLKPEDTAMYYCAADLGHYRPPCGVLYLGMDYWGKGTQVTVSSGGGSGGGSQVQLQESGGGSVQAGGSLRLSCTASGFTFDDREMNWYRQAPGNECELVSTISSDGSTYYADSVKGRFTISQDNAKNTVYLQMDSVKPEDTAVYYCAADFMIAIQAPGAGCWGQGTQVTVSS = 8430
